# testSystem: Recombinant STAT6 protein (STAT6 (W123-T658)) (Homo sapiens, UniProt P42226)
# Construct: Recombinant STAT6 protein (STAT6 (W123-T658))
# Sequence (P42226 123-658): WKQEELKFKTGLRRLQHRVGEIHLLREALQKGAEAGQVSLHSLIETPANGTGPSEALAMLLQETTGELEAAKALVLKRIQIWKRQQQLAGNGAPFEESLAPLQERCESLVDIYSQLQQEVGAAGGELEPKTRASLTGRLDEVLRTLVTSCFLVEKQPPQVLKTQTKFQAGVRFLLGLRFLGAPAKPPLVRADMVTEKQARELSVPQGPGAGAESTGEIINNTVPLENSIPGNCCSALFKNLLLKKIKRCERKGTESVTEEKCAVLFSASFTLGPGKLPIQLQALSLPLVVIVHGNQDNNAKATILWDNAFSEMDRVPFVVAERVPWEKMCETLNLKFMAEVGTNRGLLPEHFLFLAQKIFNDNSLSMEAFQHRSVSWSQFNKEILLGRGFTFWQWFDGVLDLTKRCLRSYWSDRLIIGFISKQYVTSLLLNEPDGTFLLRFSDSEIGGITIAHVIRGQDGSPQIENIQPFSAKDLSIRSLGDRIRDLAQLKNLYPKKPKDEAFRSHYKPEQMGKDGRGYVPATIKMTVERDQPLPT
# protocolDescription: STAT6 Fluorescence Polarization (FP) Assay
# Format: binding
# particulars: STAT6 (W123-T658) 250 nM, probe 5-FAM-Ap[…]-NH2 2 nM, 45-minute incubation; read-out: STAT6 (FP assay IC50 class)
assayReadout: IC50

Some compounds with known IC50 results, for comparison:
compound	testSystem	result
O=C(N[C@H]1CCCC[C@H]2CC[C@@H](C(=O)N3CC(c4cccnc4)C3)N2C1=O)c1cc2cc(CP(=O)(O)O)ccc2s1 [Compound 663]	Recombinant STAT6 protein (STAT6 (W123-T658)) (Homo sapiens, UniProt P42226)	3 to 30 µM
COc1nccc(C2CN(C(=O)[C@@H]3CC[C@@H]4CCC[C@H](NC(=O)c5cc6cc([C@@H](F)P(=O)(O)O)ccc6s5)C(=O)N43)C2)c1F (single isomer, unassigned) [Compound 700]	Recombinant STAT6 protein (STAT6 (W123-T658)) (Homo sapiens, UniProt P42226)	3 to 30 µM

Supply reported IC50 belonging to this compound: N#C[C@@H]1[C@@H](c2cncc(Cl)c2)CN(C(=O)[C@@H]2CC[C@@H]3CCC[C@H](NC(=O)c4cc5cc([C@H](F)P(=O)(O)O)ccc5s4)C(=O)N32)C12CC2 (single isomer, unassigned) [Compound 841]
0.3 to 3 µM

Supply reported IC50 belonging to this compound: CN(C)c1cccnc1C1CN(C(=O)[C@@H]2CC[C@@H]3CCC[C@H](NC(=O)c4cc5cc(C(F)P(=O)(O)O)ccc5s4)C(=O)N32)C1 (stereo partly drawn) [Compound 693]
3 to 30 µM

Supply reported IC50 belonging to this compound: COC(=O)N1C[C@H](NC(=O)[C@@H]2CC[C@@H]3CCCC[C@H](NC(=O)c4cc5cc(C(F)P(=O)(O)O)ccc5s4)C(=O)N32)[C@@H](F)C1 (stereo partly drawn) [Compound 525]
0.3 to 3 µM

Supply reported IC50 belonging to this compound: O=C(NC1CCCCC2CCC(C(=O)N3CC(O)C(n4ccnn4)C3)N2C1=O)c1ccc2ccc(C(F)(F)P(=O)(O)O)cc2c1 (mixture of isomers) [Compound 871]
0.3 to 3 µM

Supply reported IC50 belonging to this compound: C[C@@H]1COCCN1c1ccncc1C1CN(C(=O)[C@@H]2CC[C@@H]3CCC[C@H](NC(=O)c4cc5cc(CP(=O)(O)O)ccc5s4)C(=O)N32)C1 [Compound 860]
3 to 30 µM

Supply reported IC50 belonging to this compound: O=C(N[C@H]1CCCC[C@H]2CC[C@@H](C(=O)NC3CN(C(=O)OCc4ccccc4)C3)N2C1=O)c1cc2cc(C(F)P(=O)(O)O)ccc2s1 (stereo partly drawn) [Compound 524]
0.3 to 3 µM

Supply reported IC50 belonging to this compound: O=C(N[C@H]1CCC[C@H]2CC[C@@H](C(=O)N3CC(c4cnccc4OC(F)F)C3)N2C1=O)c1cc2cc(CP(=O)(O)O)ccc2s1 [Compound 632]
3 to 30 µM

Supply reported IC50 belonging to this compound: COc1ccnc(F)c1C1CN(C(=O)[C@@H]2CC[C@@H]3CCC[C@H](NC(=O)c4cc5cc(CP(=O)(O)O)ccc5s4)C(=O)N32)C1 [Compound 578]
3 to 30 µM

Supply reported IC50 belonging to this compound: N#C[C@@H]1[C@@H](c2ccccc2)CN(C(=O)[C@@H]2CC[C@@H]3CCC[C@H](NC(=O)c4cc5cc([C@H](F)P(=O)(O)O)ccc5s4)C(=O)N32)C12CC2 (single isomer, unassigned) [Compound 919]
≤ 0.3 µM

Supply reported IC50 belonging to this compound: O=C(N[C@H]1CCCC[C@H]2CC[C@@H](C(=O)N[C@H](CO)Cc3cccnc3)N2C1=O)c1cc2cc(C(F)(F)P(=O)(O)O)ccc2s1 [Compound 725]
3 to 30 µM

Supply reported IC50 belonging to this compound: C/C1=C/[C@H]2CC[C@@H](C(=O)N3CC(c4cnccc4C)C3)N2C(=O)[C@@H](NC(=O)c2cc3cc(CP(=O)(O)O)ccc3s2)CC1 [Compound 644]
3 to 30 µM

Supply reported IC50 belonging to this compound: O=C(N[C@H]1CCC[C@H]2CC[C@@H](C(=O)N3CC(c4cnccc4F)C3)N2C1=O)c1cc2cc(CP(=O)(O)O)ccc2s1 [Compound 514]
3 to 30 µM

Supply reported IC50 belonging to this compound: COC[C@@H]1CCN1c1ncncc1C1CN(C(=O)[C@@H]2CC[C@@H]3CCC[C@H](NC(=O)c4cc5cc([C@@H](F)P(=O)(O)O)ccc5s4)C(=O)N32)C1 (single isomer, unassigned) [Compound 669]
3 to 30 µM

Supply reported IC50 belonging to this compound: COCC1CN(c2ccncc2C2CN(C(=O)[C@@H]3CC[C@@H]4CCC[C@H](NC(=O)c5cc6cc([C@@H](F)P(=O)(O)O)ccc6s5)C(=O)N43)C2)C1 [Compound 856]
0.3 to 3 µM

Supply reported IC50 belonging to this compound: O=C(N[C@H]1CCCC[C@H]2CC[C@@H](C(=O)NCc3cnc4[nH]cnc4c3)N2C1=O)c1cc2cc(C(F)(F)P(=O)(O)O)ccc2s1 [Compound 1112]
0.3 to 3 µM

Supply reported IC50 belonging to this compound: O=C(N[C@H]1CCC[C@H]2CC[C@@H](C(=O)N3CC(c4cncc(Cl)c4F)C3)N2C1=O)c1cc2cc(C(F)P(=O)(O)O)ccc2s1 (stereo partly drawn) [Compound 717]
3 to 30 µM

Value source: patent US20250215029A1
